Biological target: T1, human LAG-3 on the cell surface (human, UniProt P18627 23-525)
T1 construct: whole, on cells; also called cells expressing the human LAG-3
T1 sequence (looked up): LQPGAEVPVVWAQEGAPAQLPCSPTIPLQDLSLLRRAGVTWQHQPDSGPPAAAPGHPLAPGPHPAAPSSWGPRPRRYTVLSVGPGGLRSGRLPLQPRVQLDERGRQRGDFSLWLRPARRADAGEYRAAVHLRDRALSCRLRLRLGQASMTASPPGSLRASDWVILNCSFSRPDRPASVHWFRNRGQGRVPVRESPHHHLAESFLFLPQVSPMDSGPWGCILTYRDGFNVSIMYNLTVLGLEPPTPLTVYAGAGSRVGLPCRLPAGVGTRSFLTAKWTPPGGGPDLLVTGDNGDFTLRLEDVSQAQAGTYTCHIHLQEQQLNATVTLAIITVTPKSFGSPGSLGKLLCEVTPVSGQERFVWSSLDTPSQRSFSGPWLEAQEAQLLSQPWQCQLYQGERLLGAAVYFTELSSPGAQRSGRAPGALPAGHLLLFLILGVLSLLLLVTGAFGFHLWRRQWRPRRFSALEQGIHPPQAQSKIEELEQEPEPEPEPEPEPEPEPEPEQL
Test: flow cytometry on cells expressing the human LAG-3, PE anti-human IgG; N = 4

{"Binder": "anti-human LAG-3 full human monoclonal antibody MV705-3 (antibody, human IgG4, V domains shown, Full IgG4 with lambda light chain; also called MV705-3(DD + DD)) VH: EVQLLESGAEVKKPGASVKVSCKASGYTFTSYGISWVRQAPGQGLEWMGWISAYNGNTNYAQKLQGRVTMTTDTSTSTAYMELRSLRSDDTAVYYCARDGWWELLRPDDAFDIWGQGTTVTVSS VL: QLVLTQSPSVSVSPGQTASITCSGDKLGDKYAYWYQQKPGQAPVLVIYYDSDRPSGIPERFSGSNSGNTATLTISRVEAGDEADYYCQVWDSSSDQVVFGGGTQLTVLG", "EC50 (ng/mL)": 2.3}
{"Binder": "MV705-3-VH-DD + ED-IgG4 (antibody, V domains shown, human IgG4 S228P constant region, MV705-3 lambda light chain; also called 13386; 13386 (DD + ED)) VH: EVQLLESGAEVKKPGASVKVSCKASGYTFTSYGISWVRQAPGQGLEWMGWISAYNGNTNYAQKLQGRVTMTTDTSTSTAYMELRSLRSDDTAVYYCARDGWWELLRPEDAFDIWGQGTTVTVSS VL: QLVLTQSPSVSVSPGQTASITCSGDKLGDKYAYWYQQKPGQAPVLVIYYDSDRPSGIPERFSGSNSGNTATLTISRVEAGDEADYYCQVWDSSSDQVVFGGGTQLTVLG", "EC50 (ng/mL)": 5.9}
